- target entity: MMP-2 (Homo sapiens)
- Construct: made in house; provided by Dr. Gregory Goldberg, Washington University
- Sequence (P08253 110-660): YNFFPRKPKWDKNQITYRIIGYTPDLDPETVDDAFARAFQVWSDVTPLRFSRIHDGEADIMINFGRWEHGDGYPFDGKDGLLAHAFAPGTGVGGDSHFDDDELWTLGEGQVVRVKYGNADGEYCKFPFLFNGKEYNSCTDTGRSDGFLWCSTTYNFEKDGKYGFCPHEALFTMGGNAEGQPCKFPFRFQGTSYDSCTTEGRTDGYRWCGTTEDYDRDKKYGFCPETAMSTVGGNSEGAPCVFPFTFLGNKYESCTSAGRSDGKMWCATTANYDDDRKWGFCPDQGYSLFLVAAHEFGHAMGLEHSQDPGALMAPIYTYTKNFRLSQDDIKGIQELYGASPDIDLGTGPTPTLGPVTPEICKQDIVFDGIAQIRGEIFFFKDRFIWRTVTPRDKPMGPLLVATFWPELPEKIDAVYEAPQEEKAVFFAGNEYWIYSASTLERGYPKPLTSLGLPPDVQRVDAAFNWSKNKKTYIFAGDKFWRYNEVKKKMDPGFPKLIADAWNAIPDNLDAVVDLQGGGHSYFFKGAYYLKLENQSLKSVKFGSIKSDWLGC
- protocol summary: biochemical
- measurement conditions: recombinant human MMP-2, MCA peptide substrate 4 μM, pH 7.5, room temperature; read-out: MMP-2 IC50
For each of the compounds below, state its pIC50.
Here pIC50 is given on a logarithmic scale as minus log10 of the concentration in mol/L.

Readout pIC50 for O=C(NO)C1(S(=O)(=O)c2ccc(N3CCC(OCc4ccc(F)c(C(F)(F)F)c4)CC3)cc2)CCN(C2CC2)CC1 , test system MMP-2 (Homo sapiens), was 6.10

Readout pIC50 for CC1CCN(c2ccc(S(=O)(=O)C3(C(=O)NO)CCOCC3)cc2)CC1 , test system MMP-2 (Homo sapiens), was 7.68

Readout pIC50 for COCCN1CCC(C(=O)NO)(S(=O)(=O)c2ccc(N3CCC(OCc4ccc(F)cc4)CC3)cc2)CC1 , test system MMP-2 (Homo sapiens), was 6.27

Readout pIC50 for O=C(NO)C1(S(=O)(=O)c2ccc(N3CCc4ccccc4C3)cc2)CCOCC1 , test system MMP-2 (Homo sapiens), was 7.00

Readout pIC50 for O=C(NO)C1(S(=O)(=O)c2ccc(Oc3ccncc3)cc2)CCSCC1 , test system MMP-2 (Homo sapiens), was 6.54

# credit: patent US6750228B1
